biological target: Akt; experiment: Ki
pKi: −log10 of the molar value. No end group written: not given here.

# SUBSTANCE, CENSORING SIGN, pKi
measured = [
    ("Ac-DPEFEPRARERTYAFGH", "=", 6.59),
    ("Ac-RARERTYAFGH", "=", 4.80),
    ("Ac-FEPRARERTYAFGH", "=", 5.84),
    ("Ac-ERTYAFGH", "<", 4.00),
    ("FEPRARERTYAFGH", "=", 5.71),
]

Data origin: patent US20040038883A1
